protocol_text: Rat acute dermal toxicity
Assay type: in vivo
condition_set: in vivo, topical or ocular, read-out: rat acute dermal toxicity median lethal dose (LD50)
observed_property: LD50

Inquiry: Record request: LD50 value, item CC1(C)C(/C=C\C#N)C1C(=O)OCc1c(F)c(F)cc(F)c1F (stereo not shown)
Reply text: > 5000 mg/kg

###

System: Flies
protocol_text: Insecticidal aerosol efficacy, sealed drum apparatus (GB/T13917.2-2009), flies
Assay type: in vivo
condition_set: aerosol 0.3% active ingredient, 1 g sprayed, 24 h
observed_property: Mortality rate (%)
Entry rule: numbers only, all in %.

{"compound": "CC1(C)C(/C=C\\C#N)C1C(=O)OCc1c(F)c(F)cc(F)c1F (centres unmarked)", "Mortality rate, %": 100}

Inquiry: Record request: Mortality rate value, item CC1(C)C(/C=C\C#N)C1C(=O)OCc1c(F)ccc(F)c1F (centres unmarked)
Reply text: 100

Inquiry: Another compound: CC1(C)C(/C=C\C#N)C1C(=O)OCc1cc(F)cc(F)c1F (centres unmarked)
Reply text: 100

Inquiry: Another compound: COCc1c(F)c(F)c(COC(=O)C2C(/C=C(/C)C#N)C2(C)C)c(F)c1F (centres unmarked) [Momfluorothrin, reference compound]
Reply text: 70

Inquiry: Another compound: COCc1c(F)c(F)c(COC(=O)C2C(C)(C)C2(C)C)c(F)c1F [tetramethylfluthrin, reference compound]
Reply text: 80

###

protocol_text: Rat acute oral toxicity
Format: in vivo
condition_set: in vivo, read-out: rat acute oral toxicity median lethal dose (LD50)
observed_property: LD50

Inquiry: Record request: LD50 value, item CC1(C)C(/C=C\C#N)C1C(=O)OCc1c(F)c(F)cc(F)c1F (stereo not shown)
Reply text: > 5000 mg/kg

###

Test system: German cockroaches
protocol_text: Insecticidal aerosol efficacy, sealed drum apparatus (GB/T13917.2-2009), German cockroaches
Assay type: in vivo
condition_set: aerosol containing 0.3% active ingredient, 1 g sprayed
observed_property: KT50 (min)
Entry rule: numbers only, all in min.

Inquiry: Fill in the recorded KT50 for this molecule, with German cockroaches as test system: CC1(C)C(/C=C\C#N)C1C(=O)OCc1c(F)c(F)cc(F)c1F (centres unmarked)
Reply text: 5.52

Inquiry: Another molecule: COCc1c(F)c(F)c(COC(=O)C2C(/C=C(/C)C#N)C2(C)C)c(F)c1F (centres unmarked) [Momfluorothrin, reference compound]
Reply text: 17.56

Inquiry: Another molecule: CC1(C)C(/C=C\C#N)C1C(=O)OCc1c(F)ccc(F)c1F (centres unmarked)
Reply text: 6.26

Inquiry: Another molecule: CC1(C)C(/C=C\C#N)C1C(=O)OCc1cc(F)cc(F)c1F (centres unmarked)
Reply text: 4.05

Inquiry: Another molecule: COCc1c(F)c(F)c(COC(=O)C2C(C)(C)C2(C)C)c(F)c1F [tetramethylfluthrin, reference compound]
Reply text: 9.12
